Tested on: CCRIS mutagenicity, Ames/micronucleus/aberration tests
Assay: CCRIS mutagenicity studies
Conditions: Test System: AMES SALMONELLA TYPHIMURIUM; Strain/Indicator: TA100; Metabolic Activation: RAT, LIVER, S-9, AROCLOR 1254; Method: PREINCUBATION
Excerpt: The CCRIS database contains chemical records with carcinogenicity, mutagenicity, tumor promotion, and tumor inhibition test results. It was developed by the National Cancer Institute (NCI). Data are derived from studies cited in primary journals, current awareness tools, NCI reports, and other sources. Test results have been reviewed by experts in carcinogenesis and mutagenesis. CCRIS provides historical information from the years 1985 - 2011. It is no longer updated. […]
Calls of active or inactive are those of the source. How the calls were made is not given here.
Classes used: y = active, n = inactive

{"columns": ["Molecule", "Category"],
 "data": [
  ["C=CC(=O)OC", "n"],
  ["O=CCC=O", "n"],
  ["Cc1ncc[nH]1", "n"],
  ["O=[N+]([O-])c1ccc2c3c1ccc1cccc(c13)[C@@H](O)[C@@H]2O", "y"],
  ["Cc1cc(-c2ccc(N)c(C)c2)ccc1N", "n"],
  ["Nc1ccc(Cl)cc1", "n"],
  ["O=C(O)/C=C/c1ccc([N+](=O)[O-])cc1", "y"],
  ["Oc1cc2c(cc1O)[C@@H]1c3ccc(O)c(O)c3OC[C@]1(O)C2", "n"],
  ["NC(=O)N/N=C/c1ccc([N+](=O)[O-])o1", "y"],
  ["C(=C\\c1ccccc1)/c1ccccc1", "n"],
  ["OC1C=C2c3ccc4ccccc4c3-c3cccc(c32)C1O (stereo not drawn)", "y"],
  ["CC1C=CC(=O)O1 (stereo not drawn)", "n"],
  ["O=C1c2ccccc2C(=O)c2c(O)cccc21", "n"],
  ["CNc1ccc2ncccc2c1N", "n"],
  ["Oc1cc(Cl)cc(Cl)c1", "n"],
  ["COc1ccccc1O", "n"],
  ["C[C@H]1SC[C@@H](C(=O)N[C@@H](Cc2cnc[nH]2)C(=O)N2CCC[C@H]2C(N)=O)NC1=O", "n"],
  ["CC1(C)C(=O)N(Cl)C(=O)N1Cl", "n"],
  ["O=C1NCCN1c1ncc([N+](=O)[O-])s1", "y"],
  ["CC(=O)CC(C)C", "n"],
  ["C[C-](C)[N+](=O)[O-]", "y"],
  ["CCOc1ccc(N=O)cc1", "y"],
  ["C/C=C/C=C/C=O", "y"],
  ["CC(=O)Nc1ccc(S(=O)(=O)Nc2ccccn2)cc1", "n"],
  ["Cc1cnc2ccc3c(nc(N)n3C)c2n1", "y"],
  ["Clc1ccc(Cl)c(Cl)c1", "n"],
  ["COc1cc(CCCS(=O)(=O)O)ccc1O[C@H](Cc1cccc(OC)c1O)CS(=O)(=O)O", "n"],
  ["Cc1[nH]ccc2c1[nH]c1cc(=O)ccc12", "n"],
  ["Oc1ccc2c3ccccc3c3cc4ccccc4cc3c2c1", "y"],
  ["O=NN1C(C(=O)O)CSC1C(O)C(O)C(O)C(O)CO (stereo not drawn)", "n"],
  ["Cc1cncc(C)n1", "n"],
  ["CC1CS1 (stereo not drawn)", "n"],
  ["c1ccc2c(c1)cc1ccc3cccc4c5ccccc5c2c1c34", "y"],
  ["NS(=O)(=O)c1cc(C(=O)O)c(NCc2ccco2)cc1Cl", "n"],
  ["CC(=O)Nc1ccc(Oc2ccc(N(O)C=O)cc2)cc1", "y"],
  ["O=C1CN(/N=C/c2ccc([N+](=O)[O-])o2)C(=O)N1", "y"],
  ["O=c1oc2cccc3ccc4cccc1c4c32", "n"],
  ["Cn1c(N)nc2ccccc21", "y"],
  ["CCN(N=O)C(N)=O", "y"],
  ["O=[N+]([O-])c1cc2c3ccccc3ccc2c2ccccc12", "y"],
  ["CCCCC1C(=O)N(c2ccccc2)N(c2ccccc2)C1=O", "n"],
  ["O=c1ccn([C@H]2C[C@H](O)[C@@H](CO)O2)c(=O)[nH]1", "n"],
  ["CN(C)c1ccc(/C=C/C=O)cc1", "n"],
  ["O=C(/C=C/c1ccccc1)c1ccccc1", "n"],
  ["ClC(Cl)Br", "n"],
  ["COc1c(C(C)(C)C)cc([N+](=O)[O-])c(C)c1[N+](=O)[O-]", "y"],
  ["COc1cc(C(C)=O)ccc1O", "n"],
  ["Cc1cccc(OP(=O)(Oc2cccc(C)c2)Oc2cccc(C)c2)c1", "n"]
]}

###

System: CCRIS mutagenicity, Ames/micronucleus/aberration tests
Test: CCRIS mutagenicity studies
Settings: Test System: AMES SALMONELLA TYPHIMURIUM; Strain/Indicator: TA100; Metabolic Activation: RAT, LIVER, S-9, KANECHLOR 500; Method: PREINCUBATION
Activity calls are given as the source filed them. How the calls were made is not given here.
Classes used: active, inactive

{"columns": ["Molecule", "Category"],
 "data": [
  ["OCC(O)CCl (stereo not drawn)", "inactive"],
  ["Nc1ccc([N+](=O)[O-])cc1[N+](=O)[O-]", "active"],
  ["O=C(O)c1cc([N+](=O)[O-])cc([N+](=O)[O-])c1", "active"],
  ["O=C(O)c1ccc(Cl)c([N+](=O)[O-])c1", "active"],
  ["O=[N+]([O-])c1ccccc1O", "inactive"],
  ["O=C(Cl)c1ccccc1[N+](=O)[O-]", "active"],
  ["O=C(O)c1ccc([N+](=O)[O-])cc1[N+](=O)[O-]", "inactive"],
  ["Nc1nc(NO)c2[nH]cnc2n1", "active"]
]}

###

System: CCRIS mutagenicity, Ames/micronucleus/aberration tests
Experiment: CCRIS mutagenicity studies
Details: Test System: AMES SALMONELLA TYPHIMURIUM; Strain/Indicator: TA98; Metabolic Activation: RAT, LIVER, S-9, AROCLOR 1254; Method: STANDARD PLATE
The source made the active and inactive calls. The rule behind the calls is not given here.
Classes used: 1.0 = active, 0.0 = inactive

{"columns": ["Compound String", "Category"],
 "data": [
  ["Cn1c([N+](=O)[O-])cnc1-c1nnc(N)s1", 1.0],
  ["ONc1ncnc2c1ncn2Cc1ccccc1", 1.0],
  ["CCOC(=O)CBr", 0.0]
]}

###

Test system: CCRIS mutagenicity, Ames/micronucleus/aberration tests
Experiment: CCRIS mutagenicity studies
Settings: Test System: AMES SALMONELLA TYPHIMURIUM; Strain/Indicator: TA100; Metabolic Activation: RAT, LIVER, S-9, AROCLOR 1254 (10%); Method: PREINCUBATION
Calls of active or inactive are those of the source. The rule behind the calls is not given here.
Classes used: yes (1) (active), no (0) (inactive)

{"columns": ["Compound", "Category"],
 "data": [
  ["CC(=O)c1ccccc1[N+](=O)[O-]", "no (0)"],
  ["CC(C)(C)C(=O)C1C(=O)c2ccccc2C1=O", "no (0)"],
  ["CCCCC(CC)COC(=O)CCCCCCCCC(=O)OCC(CC)CCCC (stereo unspecified)", "no (0)"],
  ["CCCCCCC(=O)O", "no (0)"],
  ["CC(=O)C(N=Nc1ccc(-c2ccc(N=NC(C(C)=O)C(=O)Nc3ccccc3)c(Cl)c2)cc1Cl)C(=O)Nc1ccccc1 (stereo unspecified)", "no (0)"],
  ["O=C1CCC(N2C(=O)c3ccccc3C2=O)C(=O)N1 (stereo unspecified)", "no (0)"],
  ["Nc1ccccc1Cl", "no (0)"],
  ["O=C1c2c(Br)c(Br)c(Br)c(Br)c2C(=O)N1CCN1C(=O)c2c(Br)c(Br)c(Br)c(Br)c2C1=O", "no (0)"],
  ["NCCCNCCCN", "no (0)"],
  ["NC(Cc1ccc(F)cc1)C(=O)O (stereo unspecified)", "no (0)"],
  ["CCCCNCC", "no (0)"],
  ["Nc1ccc(Cc2ccc(N)c(Cc3ccc(N)cc3)c2)cc1", "yes (1)"],
  ["CCCCC(CC)CO (stereo unspecified)", "no (0)"],
  ["Cc1ccccc1C#N", "no (0)"],
  ["Cc1ccc(S(=O)(=O)O)cc1C", "no (0)"],
  ["CCc1cc(C(N)=S)ccn1", "no (0)"],
  ["COCCOCCOC", "no (0)"],
  ["Cc1ccccc1OP(=O)(Oc1ccccc1)Oc1ccccc1", "no (0)"],
  ["Cc1ccc(C)c(N)c1", "no (0)"],
  ["CN(C)c1ccc(N(C)C)cc1", "yes (1)"],
  ["NCCNCCNCCN", "yes (1)"],
  ["CC1CCCC1", "no (0)"],
  ["Cc1c(N)cccc1N", "yes (1)"],
  ["O=C1c2c(O)ccc([N+](=O)[O-])c2C(=O)c2c([N+](=O)[O-])ccc(O)c21", "yes (1)"],
  ["CC(C)NC(C)C", "no (0)"],
  ["CCCCCCCCCCCCCCCCC1CO1 (stereo unspecified)", "no (0)"]
]}

Values were extracted from PubChem BioAssay AID1259407.
